- testSummary: Thermodynamic solubility of the compound at pH 7.4
- Assay type: physicochemical
- testSettings: buffer, read-out: Therm_solubility
As shown below, each of these molecules has a reported solubility thermodynamic value.

Known solubility thermodynamic results, listed for orientation:
[[record]]
chemsmiles = "Cn1c(=O)c2c(nc3n2CCN(Cc2csc(-c4ccc(Cl)cc4)n2)C3)n(C)c1=O"
resulttype = "solubility thermodynamic"
reportedresult = "< 0.5 µg/mL"

[[record]]
chemsmiles = "Cn1c(=O)c2c(nc3n2CCN(CCCn2cccc2)C3)n(C)c1=O"
resulttype = "solubility thermodynamic"
reportedresult = "< 70 µg/mL"

[[record]]
chemsmiles = "Cn1c(=O)c2c(nc3n2CCN(CCc2ccccc2Br)C3)n(C)c1=O"
resulttype = "solubility thermodynamic"
reportedresult = "< 0.5 µg/mL"

[[record]]
chemsmiles = "Cn1c(=O)c2c(nc3n2CCN(CCCc2cccc(Br)c2)C3)n(C)c1=O"
resulttype = "solubility thermodynamic"
reportedresult = "< 0.5 µg/mL"

[[record]]
chemsmiles = "Cn1c(=O)c2c(nc3n2CCN(CCc2ccc(O)cc2)C3)n(C)c1=O"
resulttype = "solubility thermodynamic"
reportedresult = "1 µg/mL"


[ask] I would be grateful if you could share the reported solubility thermodynamic for COc1ccc(Br)cc1CCN1CCn2c(nc3c2c(=O)n(C)c(=O)n3C)C1 .
[reply] < 0.5 µg/mL

[ask] Requested read-out: solubility thermodynamic. Entry: Cn1c(=O)c2c(nc3n2CCN(CCOc2cccc(F)c2)C3)n(C)c1=O
[reply] < 0.5 µg/mL

[ask] What solubility thermodynamic value was documented for this molecule, Cn1c(=O)c2c(nc3n2CCN(CCc2ccc(Cl)cc2)C3)n(C)c1=O ?
[reply] 1 µg/mL

[ask] For Cn1c(=O)c2c(nc3n2CCN(CCOc2ccccc2F)C3)n(C)c1=O , what is its reported solubility thermodynamic?
[reply] < 0.5 µg/mL

[ask] Returns the measured solubility thermodynamic for the input molecule. Input: Cn1c(=O)c2c(nc3n2CCN(CCc2ccc4c(c2)OCO4)C3)n(C)c1=O
[reply] < 0.5 µg/mL

The measurements presented in this section are drawn from ChEMBL document CHEMBL4428125.
